- Test system: NCI-H322M
- Experiment: relative viability (nuclei count vs DMSO), 5 days (fraction); higher = more cells survive
- Conditions used: first compound 6.325 µM
relative viability under 0.8 gets 1, anything at or over 0.8 gets -1.

Item COCC1(CO)C(=O)C2CCN1CC2 (stereo not given) [PRIMA-1MET] + Cc1cc(Nc2cc(N3CCN(C)CC3)nc(Sc3ccc(NC(=O)C4CC4)cc3)n2)n[nH]1 [Tozasertib] (partner 0.1 µM) : relative viability beneath 0.8, strictly?
1

Is 0.8 strictly greater than the compound's reported relative viability? compound: COCC1(CO)C(=O)C2CCN1CC2 (stereo not given) [PRIMA-1MET] + O=C(c1cc(Cc2n[nH]c(=O)c3ccccc23)ccc1F)N1CCN(C(=O)C2CC2)CC1 [Olaparib] (partner 8 µM)
1

Lab log: compare recorded relative viability with 0.8; is it strictly lower for COCC1(CO)C(=O)C2CCN1CC2 (stereo not given) [PRIMA-1MET] + Cc1nc(Nc2ncc(C(=O)Nc3c(C)cccc3Cl)s2)cc(N2CCN(CCO)CC2)n1 [Dasatinib] (partner 0.075 µM) ?
1

# check: relative viability < 0.8 for COCC1(CO)C(=O)C2CCN1CC2 (stereo not given) [PRIMA-1MET] + CC(C)C[C@H](NC(=O)[C@H](Cc1ccccc1)NC(=O)c1cnccn1)B(O)O [Bortezomib] (partner 0.002 µM)
-1

Lab log: compare recorded relative viability with 0.8; is it strictly lower for COCC1(CO)C(=O)C2CCN1CC2 (stereo not given) [PRIMA-1MET] + Nc1ncn([C@H]2C[C@H](O)[C@@H](CO)O2)c(=O)n1 [Decitabine] (partner 2 µM) ?
1
